Below, each entry is listed alongside its reported TGI.
Test system: MALME-3M melanoma
Experiment: NCI tumour cell line growth inhibition, 48 h
quantity name: TGI

molecule=C=C[C@@H](C)[C@H](NS(=O)(=O)c1ccc(C)cc1)C(=O)OCC value_observed="> 100 µM"
molecule=Cc1ccc([S@](=O)c2occc2C=O)cc1 value_observed="8.45 µM"
molecule=Cc1[nH]c2ccccc2c1CCCO value_observed="> 100 µM"
molecule=COc1cc(OC)c(C/C=C/c2ccccc2)cc1O value_observed="30.5 µM"
molecule="Cc1cc(NC(=O)NC(=O)c2ccccc2NC(=O)C(C)N)ccc1Oc1ncc(Br)cn1 (stereo unspecified)" value_observed="33.4 µM"
molecule=CN(C)c1ccc(/C(F)=C(F)/C(F)=C(F)/C(F)=C(\F)c2ccc(Br)cc2)cc1 value_observed="> 71.8 µM"
molecule="CSCCC(N)C(=O)NCCNc1ccc(NCCNC(=O)C(N)CCSC)c2c1C(=O)c1ccccc1C2=O (stereo unspecified)" value_observed="6.6 µM"
molecule="Cc1cc2c(cc1Cl)SC1=NN(C)C(C)N1S2(=O)=O (stereo unspecified)" value_observed="> 100 µM"
molecule=CC(C)CNc1nc2ncnc(N)c2[nH]1 value_observed="> 100 µM"
molecule="Cc1ccc(OCC2OC(n3cnc4nc(N)nc(Cl)c43)CC2Oc2ccc(C)cc2)cc1 (stereo unspecified)" value_observed="69.2 µM"
molecule=COc1ccc(N2C(=O)CC(=O)N(C(=O)COc3ccc(OCC(=O)N4C(=O)CC(=O)N(c5ccc(OC)cc5)C4=S)cc3)C2=S)cc1 value_observed="> 100 µM"
molecule=COc1cc2ccc(=O)oc2cc1O value_observed="489 µM"
molecule="O=c1cnn(C2OC(CO)C(O)C2O)c(=S)[nH]1 (stereo unspecified)" value_observed="> 100 µM"
molecule=O=[N+]([O-])c1ccc2sc(C=Nc3cnccn3)cc2c1 value_observed="> 100 µM"
molecule="CC1CCCC2(CC[N+](C)(CCC[N+](C)(C)C)CC2)C1 (stereo unspecified)" value_observed="> 100 µM"
molecule=COc1ccc2c(c1)c(CC(=O)[Se]C)c(C)n2C(=O)c1ccc(Cl)cc1 value_observed="> 0.582 µM"
molecule="COC1CC(O[C@H]2CC[C@@]3(C)[C@H](CC[C@@H]4[C@@H]3CC[C@]3(C)[C@@H](C5=CC(=O)OC5)[C@@H](OC(C)=O)C[C@]43O)C2)OC(C)C1O (stereo partly specified)" value_observed="< 0.01 µM"
molecule="C=C1C(O)C2C(=C(CC)C13CC3)C(=O)C(C)(C)C2OC (stereo unspecified)" value_observed="> 100 µM"
molecule="COC(=O)C1CCC(=S)N1C(=O)c1ccccc1 (stereo unspecified)" value_observed="> 100 µM"
molecule="OC1(C23CC4CC(CC(C4)C2)C3)CSCC1(O)C12CC3CC(CC(C3)C1)C2 (stereo unspecified)" value_observed="> 100 µM"
molecule=CCOC(C[C@H](O[Si](C)(C)C(C)(C)C)[C@H]1COC(=S)S1)OCC value_observed="> 100 µM"
